All values here come from patent US11612606B2.

# Ki listing for each entry below
TESTED_ON: HPK full length, T165E S171E (Homo sapiens (Human), UniProt Q92918, S171E/T165E)
Sequence (Q92918 whole entry T165E/S171E, looked up): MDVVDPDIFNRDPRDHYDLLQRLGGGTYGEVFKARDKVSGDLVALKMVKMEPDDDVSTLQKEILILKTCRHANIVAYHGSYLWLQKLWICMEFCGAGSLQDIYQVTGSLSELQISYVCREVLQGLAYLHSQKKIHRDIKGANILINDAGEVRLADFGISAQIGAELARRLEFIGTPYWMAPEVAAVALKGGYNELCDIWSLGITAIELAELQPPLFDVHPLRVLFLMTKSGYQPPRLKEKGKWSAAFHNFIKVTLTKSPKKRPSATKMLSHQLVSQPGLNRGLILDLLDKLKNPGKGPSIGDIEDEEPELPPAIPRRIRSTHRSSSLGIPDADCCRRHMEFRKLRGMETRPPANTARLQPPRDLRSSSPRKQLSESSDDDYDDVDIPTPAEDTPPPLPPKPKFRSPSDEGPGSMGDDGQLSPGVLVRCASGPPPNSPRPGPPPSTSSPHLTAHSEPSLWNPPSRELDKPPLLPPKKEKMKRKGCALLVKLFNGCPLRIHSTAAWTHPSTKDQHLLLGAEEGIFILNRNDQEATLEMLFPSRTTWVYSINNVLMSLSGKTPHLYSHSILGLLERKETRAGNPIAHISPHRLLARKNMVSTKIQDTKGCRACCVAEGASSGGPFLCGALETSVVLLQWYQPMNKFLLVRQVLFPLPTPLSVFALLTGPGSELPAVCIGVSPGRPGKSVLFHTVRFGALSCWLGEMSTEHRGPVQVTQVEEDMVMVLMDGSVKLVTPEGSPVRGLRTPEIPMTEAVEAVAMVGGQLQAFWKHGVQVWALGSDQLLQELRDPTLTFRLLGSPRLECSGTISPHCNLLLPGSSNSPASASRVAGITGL
TEST_DETAILS: HPK1-FL HTRF enzymatic assay ("HTRF")
Assay type: biochemical
DETAILS: ATP 1 mM, read-out: HPK1 Ki
MEASURED_PARAMETER: Ki (nM)

1) Cc1c(-c2cc3cc(NC(=O)OC4CCOCC4)ncc3c(N)c2F)cnc2c1[C@@H](O)CCO2 (single isomer, unassigned) [Compound 412a]; 41
2) Cc1c(-c2cc3cc(NC(=O)O[C@H]4CN(C)C[C@@H]4F)ncc3c(N)c2F)cnc2c1NCCO2 [Compound 452a]; 0.03
3) Cc1c(-c2cc3cc(NC(=O)O[C@@H](C)CO)ncc3c(N)c2F)cnc2c1NCCO2 (single isomer, unassigned) [Compound 530b]; 0.11

###

TESTED_ON: HPK full length, T165E S171E (Homo sapiens (Human), UniProt Q92918, S171E/T165E)
TEST_DETAILS: HPK1-FL HTRF enzymatic assay ("HTRF")
Assay type: biochemical
DETAILS: HPK1 Ki, ATP 1 mM
Structures can show the parent of a compound that is named as a salt.
# Ki listing for each entry below
MEASURED_PARAMETER: Ki (nM)

1) Cc1c(-c2cc3cc(NC(=O)O[C@@H]4CN(C)C[C@H]4F)ncc3c(N)c2F)cnc2c1NCCO2 [Compound 452b]; 0.036
2) Cc1c(-c2cc3cc(NC(=O)O[C@H]4CCN([C@@H]5CCOC5)C[C@H]4F)ncc3c(N)c2F)cnc2c1NCCO2 [Compound 569d]; 0.031
3) Cc1c(-c2cc3cc(NC(=O)O[C@H]4CC[C@H]4O)ncc3c(N)c2F)cnc2c1NCCO2 [Compound 542a]; 0.33
4) Cc1c(-c2cc3cc(NC(=O)O[C@H]4CC[C@@H]4O)ncc3c(N)c2F)cnc2c1NCCO2 [Compound 542c, hydrochloride]; 0.021
5) Cc1c(-c2cc3cc(NC(=O)O[C@@H]4CO[C@H]5COC[C@H]54)ncc3c(N)c2F)cnc2c1NCCO2 [Compound 563a]; 0.219
6) Cc1c(-c2cc3cc(NC(=O)O[C@H]4C[C@@H](N5CCOCC5)C4)ncc3c(N)c2F)cnc2c1NCCO2 [Compound 550b]; 0.054
7) Cc1c(-c2cc3cc(NC(=O)O[C@@H]4COC[C@@H]4F)ncc3c(N)c2F)cnc2c1NCCO2 (single isomer, unassigned) [Compound 477d]; 0.02
8) Cc1c(-c2cc3cc(NC(=O)O[C@H]4CCOC4)ncc3c(N)c2F)cnc2c1NCCO2 [Compound 403b]; 0.064

###

TEST_DETAILS: Hepatocyte stability assay
Type: in vitro ADME
DETAILS: cryopreserved human hepatocytes (10 donor pool, suspension), scaled hepatic clearance, read-out: HHep Clearance
Could you label it yes if measured CLhep predicted at 1 μM is 10 mL/min/kg or higher, and no otherwise?

1) CNc1cncc(-c2cc3cc(NC(=O)OC4CC(C)(O)C4)ncc3c(N)c2F)c1C (centres unmarked); yes
2) Cc1c(-c2cc3cc(NC(=O)O[C@H]4CCO[C@H]4C)ncc3c(N)c2F)cnc2c1NCCO2 (single isomer, unassigned) [Compound 510c]; no
3) Cc1c(-c2cc3cc(NC(=O)O[C@@H]4CCOC4)ncc3c(N)c2F)cnc2c1NCCO2 [Compound 403a]; no
4) Cc1c(-c2cc3cc(NC(=O)O[C@H]4COC[C@@H]4C)ncc3c(N)c2F)cnc2c1NCCO2 (single isomer, unassigned) [Compound 441b]; no
5) Cc1c(-c2cc3cc(NC(=O)O[C@H]4C[C@H](C#N)C4)ncc3c(N)c2F)cnc2c1NCCO2 [Compound 484b]; no
6) CCc1c(-c2cc3cc(NC(=O)O[C@@H]4COC[C@H]4C)ncc3c(N)c2F)cnc2c1NCCO2.Cl (single isomer, unassigned) [Compound 555b, hydrochloride]; yes
7) Cc1c(-c2cc3cc(NC(=O)O[C@@H]4COC[C@@H]4F)ncc3c(N)c2F)cnc2c1NCCO2 (single isomer, unassigned) [Compound 477d]; no
8) Cc1c(-c2cc3cc(NC(=O)O[C@@H]4CCC[C@H]4C#N)ncc3c(N)c2F)cnc2c1NCCO2 (single isomer, unassigned) [Compound 482a]; yes

###

TESTED_ON: HPK full length, T165E S171E (Homo sapiens (Human), UniProt Q92918, S171E/T165E)
TEST_DETAILS: HPK1-FL HTRF enzymatic assay ("HTRF")
Format: biochemical
DETAILS: ATP 1 mM, read-out: HPK1 Ki
pKi: −log10 of the molar value.
MEASURED_PARAMETER: pKi

1) Cc1c(-c2cc3cc(NC(=O)O[C@H]4CN(C)C[C@H]4F)ncc3c(N)c2F)cnc2c1NCCO2 [Compound 452c]; 9.77
2) COCCN1CC(OC(=O)Nc2cc3cc(-c4cnc5c(c4C)NCCO5)c(F)c(N)c3cn2)C1; 10.22
3) Cc1c(-c2cc3cc(NC(=O)O[C@@H]4CCN(CC(F)F)C[C@@H]4F)ncc3c(N)c2F)cnc2c1NCCO2 (single isomer, unassigned) [Compound 566a]; 9.53
4) Cc1c(-c2cc3cc(NC(=O)N4CCCC4)ncc3c(N)c2F)cnc2c1NCCO2; 9.54

###

TEST_DETAILS: Pharmacokinetic study in rat
Type: in vivo, Sprague Dawley rat
DETAILS: male, Sprague Dawley, in vivo, PO 2 mg/kg, 10% DMSO/60% PEG400/30% Water, Solution
Method: Pharmacokinetic Study in Rat: Male Sprague Dawley rats obtained from Lingchang/Vital River Laboratory Animal Technology Co., Ltd., (Shanghai/Beijing, P.R. China) with body weight ranging between 200 g to 300 g were use in the PK studies. […] Concentration in each plasma sample was determined by a non-validated LC/MS/MS. Data is acquired using multiple reaction monitoring (MRM) with specific transitions monitored for each compound. […]
MEASURED_PARAMETER: bioavailability (%)

1) CCc1c(-c2cc3cc(NC(=O)O[C@@H]4COC[C@H]4C)ncc3c(N)c2F)cnc2c1NCCO2.Cl (single isomer, unassigned) [Compound 555b]; 34

###

TESTED_ON: HPK full length, T165E S171E (Homo sapiens (Human), UniProt Q92918, S171E/T165E)
TEST_DETAILS: HPK1-FL HTRF enzymatic assay ("HTRF")
Type: biochemical
DETAILS: ATP 1 mM, read-out: HPK1 Ki
Structures can show the parent of a compound that is named as a salt.
# Ki listing for each entry below
MEASURED_PARAMETER: Ki (nM)

1) Cc1c(-c2cc3cc(NC(=O)OC4CN(C(=O)[C@@H]5C[C@H]5F)C4)ncc3c(N)c2F)cnc2c1NCCC2 (single isomer, unassigned) [Compound 531b]; 0.152
2) Cc1c(-c2cc3cc(NC(=O)O[C@H]4COC[C@@H]4C)ncc3c(N)c2F)cnc2c1NC[C@H](F)O2 (single isomer, unassigned) [Compound 567a]; 0.33
3) Cc1c(-c2cc3cc(NC(=O)O[C@@H]4CC[C@H]4C#N)ncc3c(N)c2F)cnc2c1NCCO2 [Compound 535b]; 0.029
4) Cc1c(-c2cc3cc(NC(=O)O[C@H]4C[C@@H](F)C4)ncc3c(N)c2F)cnc2c1NCCO2 [Compound 541a, hydrochloride]; 0.014

###

TESTED_ON: HPK full length, T165E S171E (Homo sapiens (Human), UniProt Q92918, S171E/T165E)
TEST_DETAILS: HPK1-FL HTRF enzymatic assay ("HTRF")
Format: biochemical
DETAILS: ATP 1 mM, read-out: HPK1 Ki
Method: Assay Principle: HPK-FL enzyme phosphorylates Biotin-SLP-76 substrate in the presence of ATP at […] and varying concentrations of test compound. Product is detected by FRET using Eu-anti-pSLP76 Ab and SA-XL665. Also see www.cisbio.com/HTRF for additional HTRF technology information. Instrumentation: Echo555 compound dispenser; Agilent Bravo; Perkin Elmer Envision. To a 384 well Proxiplate with 80 nL compound or DMSO spotted on was added 4 μl/well kinase mix. […]
pKi: −log10 of the molar value.
# pKi listing for each entry below
MEASURED_PARAMETER: pKi

1. Cc1c(-c2cc3cc(NC(=O)O[C@@H]4COCCN(C)C4)ncc3c(N)c2F)cnc2c1NCCO2 (single isomer, unassigned) [Compound 440b]; 9.56
2. Cc1c(-c2cc3cc(NC(=O)O[C@H]4C[C@H]([C@@H](C)O)C4)ncc3c(N)c2F)cnc2c1NCCO2 (single isomer, unassigned) [Compound 573c]; 10.77
3. Cc1c(-c2cc3cc(NC(=O)O[C@H]4C[C@](C)(O)C4)ncc3c(N)c2F)cnc2c1NCCO2 [Compound 486b]; 10.74
4. Cc1c(-c2cc3cc(NC(=O)O[C@@H]4CC[C@H](O)C4)ncc3c(N)c2F)cnc2c1NCCO2 (single isomer, unassigned) [Compound 582b]; 10.70
